The measurements presented in this section are drawn from paper PMC2777898.

- system.tested: CCR2 (Mus musculus)
- Construct: membranes from Ba/F3 cells transfected with mouse CCR2
- Sequence (P51683 whole entry): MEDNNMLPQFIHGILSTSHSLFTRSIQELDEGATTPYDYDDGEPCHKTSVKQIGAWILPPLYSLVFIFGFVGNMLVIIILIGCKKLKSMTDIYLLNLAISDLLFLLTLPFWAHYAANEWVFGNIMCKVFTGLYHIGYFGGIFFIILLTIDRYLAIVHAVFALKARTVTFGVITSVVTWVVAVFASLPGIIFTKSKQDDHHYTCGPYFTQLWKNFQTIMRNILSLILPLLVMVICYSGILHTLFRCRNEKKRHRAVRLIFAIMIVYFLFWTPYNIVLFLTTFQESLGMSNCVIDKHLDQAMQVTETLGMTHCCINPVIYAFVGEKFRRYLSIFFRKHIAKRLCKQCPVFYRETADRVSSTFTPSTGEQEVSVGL
- experiment.notes: […]-rhCCL2 radioligand displacement, SPA, on membranes in mouse plasma
parameter: IC50 (nM)
Number only, in nM; omit the unit.

Value of IC50 reported for the compound CO[C@@H]1COCC[C@@H]1N[C@@H]1CC[C@@](C(=O)N2CCc3ncc(C(F)(F)F)cc3C2)(C(C)C)C1 [MK0812] is 19
